These data points were gathered from ChEMBL document CHEMBL4673328.

Assay: Induction of apoptosis in human CL1-5 cells assessed as viable cells at 100 nM incubated for 24 hrs by AnnexinV/FITC and propidium iodide staining based flow cytometry analysis (reference value: 94.8 %)
Assay type: functional
Settings: read-out: Activity
Kindly state viability at 0.1 µM for each of the entries shown.

[ask] Any idea what viability at 0.1 µM was measured for `CC(=O)O[C@H]1C[C@H](C)O[C@@H](O[C@H]2CC[C@]3(C=O)[C@H]4[C@H](O)C(=O)[C@]5(C)[C@@H](c6ccc(=O)oc6)CC[C@]5(O)[C@@H]4CC[C@]3(O)C2)[C@H]1O` ?
[reply] 90.9%

[ask] Any idea what viability at 0.1 µM was measured for `C[C@H]1C[C@H](O)[C@H](O)[C@H](O[C@H]2CC[C@]3(C=O)[C@H]4[C@H](O)C(=O)[C@]5(C)[C@@H](c6ccc(=O)oc6)CC[C@]5(O)[C@@H]4CC[C@]3(O)C2)O1` ?
[reply] 88.8%

[ask] Any idea what viability at 0.1 µM was measured for `C[C@@]12O[C@H]3C[C@@H](O1)[C@]1(C=O)[C@H]4[C@H](O)C(=O)[C@]5(C)[C@@H](c6ccc(=O)oc6)CC[C@]5(O)[C@@H]4CC[C@@]1(C3)O2` ?
[reply] 88.6%

[ask] Any idea what viability at 0.1 µM was measured for `CC(=O)O[C@H]1C(=O)[C@@]2(C)[C@H]([C@H](OC(=O)c3ccccc3)[C@]3(O)C[C@H](OC(=O)[C@H](O)[C@@H](NC(=O)c4ccccc4)c4ccccc4)C(C)=C1C3(C)C)[C@]1(OC(C)=O)CO[C@@H]1C[C@@H]2O` ?
[reply] 72%
